- experimental-target: TGF-beta receptor type-1 (Homo sapiens); further: in the data inactive means no Kd found up to 30 µM
- Sequence (P36897 whole entry): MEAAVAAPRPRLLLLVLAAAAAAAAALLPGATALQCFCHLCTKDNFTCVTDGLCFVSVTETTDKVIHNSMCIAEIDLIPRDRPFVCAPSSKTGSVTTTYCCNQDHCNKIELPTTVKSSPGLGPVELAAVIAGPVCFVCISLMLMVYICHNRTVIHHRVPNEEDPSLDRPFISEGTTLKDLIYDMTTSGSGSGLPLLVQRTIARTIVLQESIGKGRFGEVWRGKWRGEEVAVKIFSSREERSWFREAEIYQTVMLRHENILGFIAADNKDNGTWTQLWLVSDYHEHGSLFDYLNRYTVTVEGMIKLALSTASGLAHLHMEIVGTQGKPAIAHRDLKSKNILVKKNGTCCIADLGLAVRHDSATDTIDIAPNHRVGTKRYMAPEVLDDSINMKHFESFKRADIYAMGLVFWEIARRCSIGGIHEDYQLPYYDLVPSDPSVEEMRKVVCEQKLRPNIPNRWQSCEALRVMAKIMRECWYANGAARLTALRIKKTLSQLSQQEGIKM
Calls of active or inactive are those of the source.
The reply should be one of these categories: active, inactive

Worked set:
Cc1cc(Nc2ncc(Cl)c(Nc3ccccc3S(=O)(=O)C(C)C)n2)c(OC(C)C)cc1C1CCNCC1 [CERITINIB] :: inactive
CO[C@H]1C[C@@H]2CC[C@@H](C)[C@@](O)(O2)C(=O)C(=O)N2CCCC[C@H]2C(=O)O[C@H]([C@H](C)C[C@@H]2CC[C@@H](O)[C@H](OC)C2)CC(=O)[C@H](C)/C=C(\C)[C@@H](O)[C@@H](OC)C(=O)[C@H](C)C[C@H](C)/C=C/C=C/C=C/1C [SIROLIMUS] :: inactive
O=C(Cc1ccc(-c2ccc(OCCN3CCOCC3)cc2)cn1)NCc1ccccc1 [TIRBANIBULIN] :: inactive
Cc1nc2cc(-n3ncc(C(=O)c4cc5ccccc5[nH]4)c3N)ccc2[nH]1 [FGFR INHIBITOR DEBIO 1347] :: inactive
Cc1[nH]c(/C=C2\C(=O)Nc3ccccc32)c(C)c1CCC(=O)O [ORANTINIB] :: inactive

Q: Each compound tested received a call. Report the one for O=C(Nc1c[nH]nc1-c1nc2cc(CN3CCOCC3)ccc2[nH]1)NC1CC1 [AT-9283] .
A: active

Q: Repeat for the following compound: NC1(c2ccc(-c3nc4ccn5c(=O)[nH]nc5c4cc3-c3ccccc3)cc2)CCC1 [MK-2206]
A: inactive

Q: Repeat for the following compound: Nc1ncnc2c1c(-c1cccc(OCc3ccccc3)c1)cn2[C@H]1C[C@@H](CN2CCC2)C1 [AEW-541]
A: inactive

Q: Repeat for the following compound: CNC(=O)c1cccc2cc(Oc3ccnc4cc(OCC5(N)CC5)c(OC)cc34)ccc12 [LUCITANIB]
A: inactive

###

- experimental-target: Aurora kinase A (Homo sapiens); further: in the data inactive means no Kd found up to 30 µM
- Sequence (O14965 whole entry): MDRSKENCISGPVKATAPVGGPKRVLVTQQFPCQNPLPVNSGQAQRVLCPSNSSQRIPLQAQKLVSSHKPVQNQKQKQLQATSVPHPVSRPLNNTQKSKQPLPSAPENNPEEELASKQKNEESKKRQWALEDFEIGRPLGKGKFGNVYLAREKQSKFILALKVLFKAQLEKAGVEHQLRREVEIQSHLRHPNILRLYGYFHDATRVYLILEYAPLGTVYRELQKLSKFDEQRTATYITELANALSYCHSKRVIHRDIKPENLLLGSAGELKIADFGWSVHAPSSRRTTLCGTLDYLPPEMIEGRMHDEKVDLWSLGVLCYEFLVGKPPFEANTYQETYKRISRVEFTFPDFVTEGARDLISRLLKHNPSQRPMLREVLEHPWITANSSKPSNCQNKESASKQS
The source made the active and inactive calls.
The reply should be one of these categories: active, inactive

Worked set:
COc1cc2c(Nc3ccc(Cl)c(Cl)c3F)ncnc2cc1OC[C@@H]1C[C@@H]2CN(C)C[C@@H]2C1 :: inactive
O=C(Nc1nc2cccc(-c3ccc(CN4CCS(=O)(=O)CC4)cc3)n2n1)C1CC1 :: inactive
Cc1cc(Nc2ncc(Cl)c(Nc3ccccc3S(=O)(=O)C(C)C)n2)c(OC(C)C)cc1C1CCNCC1 :: inactive
Cc1cnc(NC(=O)Nc2cc(Br)c(C)cc2OC[C@@H]2CNCCO2)cn1 :: inactive
Cc1nc2cc(-n3ncc(C(=O)c4cc5ccccc5[nH]4)c3N)ccc2[nH]1 :: inactive

Q: Each molecule tested received a call. Report the one for C#Cc1cccc(Nc2ncnc3cc(OC)c(OCCCCCCC(=O)NO)cc23)c1 .
A: inactive

###

- experimental-target: TRAF2 and NCK-interacting protein kinase (Homo sapiens, UniProt Q9UKE5); further: in the data inactive means no Kd found up to 30 µM
- Sequence (Q9UKE5 whole entry): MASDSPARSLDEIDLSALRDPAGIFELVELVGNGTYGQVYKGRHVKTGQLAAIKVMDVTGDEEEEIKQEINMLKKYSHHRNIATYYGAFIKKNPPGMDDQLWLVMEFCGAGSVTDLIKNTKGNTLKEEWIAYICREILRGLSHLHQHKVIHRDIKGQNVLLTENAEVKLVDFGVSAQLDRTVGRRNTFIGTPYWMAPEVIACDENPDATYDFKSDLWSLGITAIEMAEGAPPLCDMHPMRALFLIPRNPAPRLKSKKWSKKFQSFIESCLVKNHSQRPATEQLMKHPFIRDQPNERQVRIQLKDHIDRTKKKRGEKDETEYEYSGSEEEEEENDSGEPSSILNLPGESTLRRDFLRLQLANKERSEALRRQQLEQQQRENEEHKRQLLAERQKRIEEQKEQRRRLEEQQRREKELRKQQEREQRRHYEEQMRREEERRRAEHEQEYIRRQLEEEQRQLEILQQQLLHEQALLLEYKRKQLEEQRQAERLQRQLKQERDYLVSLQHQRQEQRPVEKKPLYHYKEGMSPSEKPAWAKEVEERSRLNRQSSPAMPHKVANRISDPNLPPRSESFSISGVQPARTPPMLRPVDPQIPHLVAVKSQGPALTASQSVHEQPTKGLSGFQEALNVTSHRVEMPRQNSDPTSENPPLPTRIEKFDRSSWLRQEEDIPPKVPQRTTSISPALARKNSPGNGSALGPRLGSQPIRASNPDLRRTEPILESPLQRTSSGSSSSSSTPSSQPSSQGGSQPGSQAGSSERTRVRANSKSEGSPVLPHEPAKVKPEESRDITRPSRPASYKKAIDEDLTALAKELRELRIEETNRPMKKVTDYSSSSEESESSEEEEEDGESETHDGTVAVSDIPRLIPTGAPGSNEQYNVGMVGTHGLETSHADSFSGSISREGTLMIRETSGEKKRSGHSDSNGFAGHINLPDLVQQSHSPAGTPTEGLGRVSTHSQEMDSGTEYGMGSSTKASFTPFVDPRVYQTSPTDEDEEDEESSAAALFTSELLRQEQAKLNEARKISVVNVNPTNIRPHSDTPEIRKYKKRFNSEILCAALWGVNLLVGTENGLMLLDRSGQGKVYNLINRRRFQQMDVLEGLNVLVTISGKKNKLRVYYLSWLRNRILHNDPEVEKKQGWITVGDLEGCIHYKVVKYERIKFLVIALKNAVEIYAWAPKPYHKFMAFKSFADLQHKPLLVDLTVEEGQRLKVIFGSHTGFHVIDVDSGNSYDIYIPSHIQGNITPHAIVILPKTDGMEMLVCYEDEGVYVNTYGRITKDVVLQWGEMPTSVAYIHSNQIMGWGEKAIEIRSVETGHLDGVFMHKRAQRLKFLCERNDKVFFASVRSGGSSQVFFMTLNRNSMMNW
Calls of active or inactive are those of the source.
The reply should be one of these categories: yes = active, no = inactive

Worked set:
COc1cc2c(Nc3ccc(Cl)c(Cl)c3F)ncnc2cc1OC[C@@H]1C[C@@H]2CN(C)C[C@@H]2C1 :: no
CNC(=O)c1cc(Oc2ccc(NC(=O)Nc3cc(C(C)(C)C)nn3-c3ccc4ncccc4c3)c(F)c2)ccn1 :: yes
COc1ncc(-c2ccc3nccc(-c4ccnnc4)c3c2)cc1NS(=O)(=O)c1ccc(F)cc1F :: no
CCCCCCCCCCCCCCCCCCOP(=O)([O-])OC1CC[N+](C)(C)CC1 :: no
CC(C)(C)c1nc(-c2cccc(NS(=O)(=O)c3c(F)cccc3F)c2F)c(-c2ccnc(N)n2)s1 :: no
COc1cc([C@@H]2c3cc4c(cc3[C@H](O)[C@H]3COC(=O)[C@@H]23)OCO4)cc(OC)c1OC :: no

Q: Each molecule tested received a call. Report the one for Cc1csc(-c2nnc(Nc3ccc(Oc4ncccc4-c4ccnc(N)n4)cc3)c3ccccc23)c1 .
A: no

Q: Repeat for the following molecule: Cc1cc(Nc2ncnc3ccc(NC4=NC(C)(C)CO4)cc23)ccc1Oc1ccn2ncnc2c1
A: no

Q: Repeat for the following molecule: O=C(Nc1c[nH]nc1-c1nc2cc(CN3CCOCC3)ccc2[nH]1)NC1CC1
A: yes
